Assay: Phase 1 Part C plasma PK in HS/AD patients
Format: in vivo
Settings: human, plasma, oral; Part C, 75 mg QD fed, HS/AD patients
TEST_READOUT: half-life (h)
Express your answer in h, writing the number without its unit.

Task item: Query (molecule): `Cn1c(=O)n([C@@H]2CCC(=O)NC2=O)c2cccc(C#CCOC3CCN(C[C@H]4CC[C@H](n5cc(NC(=O)c6cnn7ccc(N8C[C@H]9C[C@@H]8CO9)nc67)c(C(F)F)n5)CC4)CC3)c21` ; field requested: half-life
Reply: 44

---

Experiment: clinical
Details: human, in vivo, po, 75 mg
TEST_READOUT: AUC (ng·h/mL)
Express your answer in ng·h/mL, writing the number without its unit.

Task item: Query (molecule): Cn1c(=O)n([C@@H]2CCC(=O)NC2=O)c2cccc(C#CCOC3CCN(C[C@H]4CC[C@H](n5cc(NC(=O)c6cnn7ccc(N8C[C@H]9C[C@@H]8CO9)nc67)c(C(F)F)n5)CC4)CC3)c21 [Compound A] ; field requested: AUC
Reply: 288

---

Assay: clinical
Settings: human, in vivo, po, 600 mg
TEST_READOUT: Cmax (ng/mL)
Express your answer in ng/mL, writing the number without its unit.

Task item: Query (molecule): `Cn1c(=O)n([C@@H]2CCC(=O)NC2=O)c2cccc(C#CCOC3CCN(C[C@H]4CC[C@H](n5cc(NC(=O)c6cnn7ccc(N8C[C@H]9C[C@@H]8CO9)nc67)c(C(F)F)n5)CC4)CC3)c21` ; field requested: Cmax
Reply: 24.2

---

Experiment: clinical
Conditions: human, in vivo, po, 300 mg
TEST_READOUT: Cmax (ng/mL)
Express your answer in ng/mL, writing the number without its unit.

Task item: Query (compound): Cn1c(=O)n([C@@H]2CCC(=O)NC2=O)c2cccc(C#CCOC3CCN(C[C@H]4CC[C@H](n5cc(NC(=O)c6cnn7ccc(N8C[C@H]9C[C@@H]8CO9)nc67)c(C(F)F)n5)CC4)CC3)c21 [Compound A] ; field requested: Cmax
Reply: 17.4

---

Experiment: Phase 1 MAD plasma PK in healthy volunteers
Assay type: in vivo, human
Details: human, plasma, oral; 25 mg QD, Day 14, geometric mean (% CV); read-out: AUC24
TEST_READOUT: AUC (ng·h/mL)
Express your answer in ng·h/mL, writing the number without its unit.

Task item: Query (compound): Cn1c(=O)n([C@@H]2CCC(=O)NC2=O)c2cccc(C#CCOC3CCN(C[C@H]4CC[C@H](n5cc(NC(=O)c6cnn7ccc(N8C[C@H]9C[C@@H]8CO9)nc67)c(C(F)F)n5)CC4)CC3)c21 [Compound A] ; field requested: AUC
Reply: 153

---

Assay: clinical
Conditions: human, in vivo, po, 25 mg
TEST_READOUT: Cmax (ng/mL)
Express your answer in ng/mL, writing the number without its unit.

Task item: Query (compound): `Cn1c(=O)n([C@@H]2CCC(=O)NC2=O)c2cccc(C#CCOC3CCN(C[C@H]4CC[C@H](n5cc(NC(=O)c6cnn7ccc(N8C[C@H]9C[C@@H]8CO9)nc67)c(C(F)F)n5)CC4)CC3)c21` ; field requested: Cmax
Reply: 3.49

---

Experiment: clinical
Conditions: human, in vivo, po, 150 mg
TEST_READOUT: Tmax
Units required after the number.

Task item: Query (molecule): Cn1c(=O)n([C@@H]2CCC(=O)NC2=O)c2cccc(C#CCOC3CCN(C[C@H]4CC[C@H](n5cc(NC(=O)c6cnn7ccc(N8C[C@H]9C[C@@H]8CO9)nc67)c(C(F)F)n5)CC4)CC3)c21 [Compound A] ; field requested: Tmax
Reply: 9 h

---

Assay: clinical
Details: human, in vivo, po, 300 mg
TEST_READOUT: Tmax (h)
Express your answer in h, writing the number without its unit.

Task item: Query (compound): `Cn1c(=O)n([C@@H]2CCC(=O)NC2=O)c2cccc(C#CCOC3CCN(C[C@H]4CC[C@H](n5cc(NC(=O)c6cnn7ccc(N8C[C@H]9C[C@@H]8CO9)nc67)c(C(F)F)n5)CC4)CC3)c21` ; field requested: Tmax
Reply: 8

---

Assay: Phase 1 MAD plasma PK in healthy volunteers
Assay type: in vivo, human
Conditions: human, plasma, oral; 100 mg QD, Day 14, geometric mean (% CV); read-out: AUC24
TEST_READOUT: AUC

Task item: Query (molecule): `Cn1c(=O)n([C@@H]2CCC(=O)NC2=O)c2cccc(C#CCOC3CCN(C[C@H]4CC[C@H](n5cc(NC(=O)c6cnn7ccc(N8C[C@H]9C[C@@H]8CO9)nc67)c(C(F)F)n5)CC4)CC3)c21` ; field requested: AUC
Reply: 314 ng·h/mL

---

Assay: Phase 1 MAD plasma PK in healthy volunteers
Format: in vivo, human
Conditions: human, plasma, oral; 25 mg QD, Day 14 steady state, geometric mean (% CV)
TEST_READOUT: Cmax (ng/mL)
Express your answer in ng/mL, writing the number without its unit.

Task item: Query (molecule): `Cn1c(=O)n([C@@H]2CCC(=O)NC2=O)c2cccc(C#CCOC3CCN(C[C@H]4CC[C@H](n5cc(NC(=O)c6cnn7ccc(N8C[C@H]9C[C@@H]8CO9)nc67)c(C(F)F)n5)CC4)CC3)c21` ; field requested: Cmax
Reply: 8.2

---

Experiment: clinical
Details: human, in vivo, po, 1600 mg
TEST_READOUT: AUC (ng·h/mL)
Express your answer in ng·h/mL, writing the number without its unit.

Task item: Query (compound): `Cn1c(=O)n([C@@H]2CCC(=O)NC2=O)c2cccc(C#CCOC3CCN(C[C@H]4CC[C@H](n5cc(NC(=O)c6cnn7ccc(N8C[C@H]9C[C@@H]8CO9)nc67)c(C(F)F)n5)CC4)CC3)c21` ; field requested: AUC
Reply: 1920

---

Assay: Phase 1 MAD plasma PK in healthy volunteers
Assay type: in vivo, human
Conditions: human, plasma, oral; 100 mg QD, Day 14 steady state, geometric mean (% CV)
Source text: The selection of Compound A doses will be guided by the safety, tolerability, and PK data in humans from the SAD portion of the study. […] Increasing dose levels in subsequent MAD cohorts will be identified based on the safety and PK observed in the previous SAD and MAD cohorts. Dose escalation between each MAD cohort will not exceed 100%. However, the dosing interval and the duration of dosing may change following review of the safety, PK, and PD data from Part A. […]
TEST_READOUT: Cmax (ng/mL)
Express your answer in ng/mL, writing the number without its unit.

Task item: Query (compound): `Cn1c(=O)n([C@@H]2CCC(=O)NC2=O)c2cccc(C#CCOC3CCN(C[C@H]4CC[C@H](n5cc(NC(=O)c6cnn7ccc(N8C[C@H]9C[C@@H]8CO9)nc67)c(C(F)F)n5)CC4)CC3)c21` ; field requested: Cmax
Reply: 16.1

---

Assay: Phase 1 MAD plasma PK in healthy volunteers
Assay type: in vivo, human
Settings: human, plasma, oral; 100 mg QD, Day 14, median (range)
TEST_READOUT: Tmax (h)
Express your answer in h, writing the number without its unit.

Task item: Query (compound): `Cn1c(=O)n([C@@H]2CCC(=O)NC2=O)c2cccc(C#CCOC3CCN(C[C@H]4CC[C@H](n5cc(NC(=O)c6cnn7ccc(N8C[C@H]9C[C@@H]8CO9)nc67)c(C(F)F)n5)CC4)CC3)c21` ; field requested: Tmax
Reply: 8

---

Test: clinical
Settings: human, in vivo, po, 300 mg
TEST_READOUT: half-life (h)
Express your answer in h, writing the number without its unit.

Task item: Query (compound): Cn1c(=O)n([C@@H]2CCC(=O)NC2=O)c2cccc(C#CCOC3CCN(C[C@H]4CC[C@H](n5cc(NC(=O)c6cnn7ccc(N8C[C@H]9C[C@@H]8CO9)nc67)c(C(F)F)n5)CC4)CC3)c21 [Compound A] ; field requested: half-life
Reply: 26.6
